# TARGET DESC: the molecule itself
# RUN DESCRIPTION: AUC
For each of the proteins below, state its stoichiometry N.
Answers are plain numbers.

Use these answered entries as a reference point.
LI Int CTD Y369A (133-452) (domain or fragment, Listeria innocua (prophage), UniProt Q928V6 133-452, looked up) RDRMVMGKIKRIEAGLPLTTAKGRTFGYDVIDTKLYINEEEAKQLRLIYDIFEEEQSITFLQKRLKKLGFKVRTYNRYNNWLTNDLYCGYVSYKDKVHVKGIHEPIISEEQFYRVQEIFSRMGKNPNMNKESASLLNNLVVCSKCGLGFVHRRKDTVSRGKKYHYRYYSCKTYKHTHELEKCGNKIWRADKLEELIIDRVNNYSFASRNIDKEDELDSLNEKLKIEHAKKKRLFDLAINGSYEVSELDSMMNDIDAQINYYEAQIEANEELKKNKKIQENLADLATVDFNSLEFREKQLYLKSLINKIYIDGEQVTIEWL    2
LI Int with the coiled-coil motif deleted, IntΔCC (Δ342-416) (enzyme, Listeria innocua (prophage), UniProt Q928V6 1-452, looked up) MKAAIYIRVSTQEQVENYSIQAQTEKLTALCRSKDWDVYDTFIDGGYSGSNMNRPALNEMLSKLHEIDAVVVYRLDRLSRSQKDTITLIEEYFLKNNVEFVSLSETLDTSSPFGRAMIGILSVFAQLERETIRDRMVMGKIKRIEAGLPLTTAKGRTFGYDVIDTKLYINEEEAKQLRLIYDIFEEEQSITFLQKRLKKLGFKVRTYNRYNNWLTNDLYCGYVSYKDKVHVKGIHEPIISEEQFYRVQEIFSRMGKNPNMNKESASLLNNLVVCSKCGLGFVHRRKDTVSRGKKYHYRYYSCKTYKHTHELEKCGNKIWRADKLEELIIDRVNNYSFASRNATVDFNSLEFREKQLYLKSLINKIYIDGEQVTIEWL    2

Now for the protein whose stoichiometry N we want.
Quick one: give measured stoichiometry N for LI Int CTD K362A (133-452) (domain or fragment, Listeria innocua (prophage), UniProt Q928V6 133-452, looked up) RDRMVMGKIKRIEAGLPLTTAKGRTFGYDVIDTKLYINEEEAKQLRLIYDIFEEEQSITFLQKRLKKLGFKVRTYNRYNNWLTNDLYCGYVSYKDKVHVKGIHEPIISEEQFYRVQEIFSRMGKNPNMNKESASLLNNLVVCSKCGLGFVHRRKDTVSRGKKYHYRYYSCKTYKHTHELEKCGNKIWRADKLEELIIDRVNNYSFASRNIDKEDELDSLNEKLKIEHAKAKRLFDLYINGSYEVSELDSMMNDIDAQINYYEAQIEANEELKKNKKIQENLADLATVDFNSLEFREKQLYLKSLINKIYIDGEQVTIEWL
2

# credit: paper PMC5499577
